Provide the reported pIC50 of each item.
biological target: Metabotropic glutamate receptor 5 (Mus musculus); assay: Antagonist activity at mGluR5 in mouse astrocytes assessed as inhibition of L-quisqualate induced calcium release by FLIPR assay
Sequence (Q3UVX5 whole entry): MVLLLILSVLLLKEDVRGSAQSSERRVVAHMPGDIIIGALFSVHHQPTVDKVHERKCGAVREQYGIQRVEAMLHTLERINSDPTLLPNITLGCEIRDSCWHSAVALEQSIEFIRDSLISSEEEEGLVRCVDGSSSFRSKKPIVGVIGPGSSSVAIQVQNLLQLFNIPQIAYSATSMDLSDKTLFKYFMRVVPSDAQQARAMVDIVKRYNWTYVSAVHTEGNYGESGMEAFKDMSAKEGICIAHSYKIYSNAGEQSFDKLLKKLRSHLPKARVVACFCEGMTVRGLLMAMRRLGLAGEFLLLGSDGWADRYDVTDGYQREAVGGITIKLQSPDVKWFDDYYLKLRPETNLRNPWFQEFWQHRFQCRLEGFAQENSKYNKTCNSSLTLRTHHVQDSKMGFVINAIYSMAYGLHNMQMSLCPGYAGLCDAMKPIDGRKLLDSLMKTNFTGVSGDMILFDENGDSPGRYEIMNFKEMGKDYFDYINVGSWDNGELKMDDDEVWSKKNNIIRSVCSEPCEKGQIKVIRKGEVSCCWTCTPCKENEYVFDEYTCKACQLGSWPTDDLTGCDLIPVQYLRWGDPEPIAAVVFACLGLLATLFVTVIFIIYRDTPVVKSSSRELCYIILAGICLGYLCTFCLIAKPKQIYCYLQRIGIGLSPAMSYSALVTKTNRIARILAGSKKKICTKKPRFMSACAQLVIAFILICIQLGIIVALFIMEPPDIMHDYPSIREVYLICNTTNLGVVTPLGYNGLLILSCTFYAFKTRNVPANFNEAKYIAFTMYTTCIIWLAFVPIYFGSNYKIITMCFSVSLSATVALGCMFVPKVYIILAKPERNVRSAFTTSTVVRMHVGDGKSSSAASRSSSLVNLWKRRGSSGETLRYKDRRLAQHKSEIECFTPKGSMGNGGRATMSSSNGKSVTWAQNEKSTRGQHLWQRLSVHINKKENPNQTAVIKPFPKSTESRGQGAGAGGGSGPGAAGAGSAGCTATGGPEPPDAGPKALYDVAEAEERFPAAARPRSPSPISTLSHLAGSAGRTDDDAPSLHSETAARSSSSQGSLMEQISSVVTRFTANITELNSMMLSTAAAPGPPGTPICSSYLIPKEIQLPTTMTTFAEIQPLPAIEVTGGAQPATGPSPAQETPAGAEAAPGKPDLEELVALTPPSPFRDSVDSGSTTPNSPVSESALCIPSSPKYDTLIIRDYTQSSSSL
API: returns pIC50 as number; meaning -log10 of concentration in mol/L.

Identify measured pIC50 associated with Cc1c([C@@H](C)OC(=O)Nc2cccc(F)c2)sc2nncn12
7.50

Identify measured pIC50 associated with Cc1c([C@@H](C)OC(=O)Nc2ccccc2)sc2ncnn12
7.50

###

target: Metabotropic glutamate receptor 1 (Homo sapiens) (UniProt Q13255)
Sequence (Q13255 whole entry, looked up): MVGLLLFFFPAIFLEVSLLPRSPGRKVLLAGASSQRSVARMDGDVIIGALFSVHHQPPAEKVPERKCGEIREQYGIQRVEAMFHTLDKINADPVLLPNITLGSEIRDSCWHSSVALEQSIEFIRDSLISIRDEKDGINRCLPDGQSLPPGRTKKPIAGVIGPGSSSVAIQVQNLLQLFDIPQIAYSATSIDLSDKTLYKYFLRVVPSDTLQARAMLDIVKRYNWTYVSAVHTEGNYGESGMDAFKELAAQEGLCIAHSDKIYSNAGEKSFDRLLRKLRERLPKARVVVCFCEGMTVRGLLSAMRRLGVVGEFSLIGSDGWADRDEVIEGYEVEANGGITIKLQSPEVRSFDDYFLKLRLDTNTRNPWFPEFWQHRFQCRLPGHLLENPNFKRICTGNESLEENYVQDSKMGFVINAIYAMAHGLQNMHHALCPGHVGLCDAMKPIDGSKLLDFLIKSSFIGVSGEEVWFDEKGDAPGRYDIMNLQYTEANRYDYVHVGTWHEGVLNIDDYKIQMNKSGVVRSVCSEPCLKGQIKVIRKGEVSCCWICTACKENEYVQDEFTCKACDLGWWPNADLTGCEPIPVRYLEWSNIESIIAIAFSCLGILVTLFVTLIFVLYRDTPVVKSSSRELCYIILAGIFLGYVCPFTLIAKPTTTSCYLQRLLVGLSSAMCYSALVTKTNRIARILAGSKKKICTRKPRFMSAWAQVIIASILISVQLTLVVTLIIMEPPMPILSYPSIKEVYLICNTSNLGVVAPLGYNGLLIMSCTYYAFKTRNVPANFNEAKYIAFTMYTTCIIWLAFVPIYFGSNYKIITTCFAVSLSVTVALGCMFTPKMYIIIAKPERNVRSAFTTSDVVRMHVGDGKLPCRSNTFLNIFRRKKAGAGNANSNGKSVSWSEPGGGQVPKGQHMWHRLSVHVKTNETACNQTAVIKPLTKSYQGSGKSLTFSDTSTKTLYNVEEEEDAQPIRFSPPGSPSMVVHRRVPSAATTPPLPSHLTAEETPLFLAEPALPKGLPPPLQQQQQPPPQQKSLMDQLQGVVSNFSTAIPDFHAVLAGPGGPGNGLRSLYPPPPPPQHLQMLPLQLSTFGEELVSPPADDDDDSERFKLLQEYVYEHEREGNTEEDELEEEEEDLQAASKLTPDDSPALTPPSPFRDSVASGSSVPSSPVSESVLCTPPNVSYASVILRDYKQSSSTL
outcome measure: pIC50
API: returns pIC50 as number; meaning -log10 of concentration in mol/L.

Fetch value of pIC50 on Metabotropic glutamate receptor 1 (Homo sapiens) (UniProt Q13255) for Cc1c([C@@H](C)OC(=O)Nc2ccccc2)sc2ncnn12 .
4.50

Entry source: ChEMBL document CHEMBL1629432
